Where do the numbers come from? From patent US20240124504A1.

tested on: Caco-2 cells; experiment: Caco-2 membrane permeability and efflux rate; type: in vitro ADME; conditions: Caco-2, 5 μM, 2 hours, basal end to top end
Reported Papp(B-A) by item:

{"columns": ["compound", "Papp(B-A)"],
 "data": [
  ["CC(CO)CNc1ncc(C(F)(F)F)c(-c2c[nH]c3c(P(C)(C)=O)cccc23)n1 (single isomer, unassigned) [Compound 150]", "27.87 10^−6, cm/s"],
  ["CC(O)[C@H](C)Nc1ncc(C(F)(F)F)c(-c2c[nH]c3c(P(C)(C)=O)cccc23)n1 (single isomer, unassigned) [Compound 130]", "35.08 10^−6, cm/s"],
  ["CP(C)(=O)c1cccc2c(-c3nc(NCC4CC4CO)ncc3C(F)(F)F)c[nH]c12 (single isomer, unassigned) [Compound 144]", "36.73 10^−6, cm/s"]
]}

Short answer please: Papp(B-A), Caco-2 cells, entry CP(C)(=O)c1cccc2c(-c3nc(NC4(CO)CCOC4)ncc3C(F)(F)F)c[nH]c12 (single isomer, unassigned) [Compound 119]
34.09 10^−6, cm/s

====

biological target: CDK12 (aa686-1082)/cyclinK complex (Homo sapiens); construct: A CDK12 (aa686-1082)/cyclinK complex (50 nM); experiment: In-vitro enzymatic inhibitory activity testing, CDK12 inhibition assay (Caliper EZ Reader II); type: biochemical; conditions: CDK12/cyclinK 50 nM, 180 min at 27° C.; read-out: CDK12 IC50
Sequence (Q9NYV4 686-1082, species assumed): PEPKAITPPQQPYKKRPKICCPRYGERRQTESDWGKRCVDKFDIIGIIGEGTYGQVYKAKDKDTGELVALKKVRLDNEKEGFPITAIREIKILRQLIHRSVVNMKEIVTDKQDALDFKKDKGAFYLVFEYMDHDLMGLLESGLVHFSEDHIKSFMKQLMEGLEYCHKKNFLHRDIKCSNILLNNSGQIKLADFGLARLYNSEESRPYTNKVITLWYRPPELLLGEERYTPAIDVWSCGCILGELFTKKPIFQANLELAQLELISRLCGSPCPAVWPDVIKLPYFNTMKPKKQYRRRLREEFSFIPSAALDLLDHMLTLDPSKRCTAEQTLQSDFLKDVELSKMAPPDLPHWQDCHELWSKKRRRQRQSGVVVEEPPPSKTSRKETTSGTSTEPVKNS
Sequence (O75909 whole entry partner, species assumed, the tested form may be a part): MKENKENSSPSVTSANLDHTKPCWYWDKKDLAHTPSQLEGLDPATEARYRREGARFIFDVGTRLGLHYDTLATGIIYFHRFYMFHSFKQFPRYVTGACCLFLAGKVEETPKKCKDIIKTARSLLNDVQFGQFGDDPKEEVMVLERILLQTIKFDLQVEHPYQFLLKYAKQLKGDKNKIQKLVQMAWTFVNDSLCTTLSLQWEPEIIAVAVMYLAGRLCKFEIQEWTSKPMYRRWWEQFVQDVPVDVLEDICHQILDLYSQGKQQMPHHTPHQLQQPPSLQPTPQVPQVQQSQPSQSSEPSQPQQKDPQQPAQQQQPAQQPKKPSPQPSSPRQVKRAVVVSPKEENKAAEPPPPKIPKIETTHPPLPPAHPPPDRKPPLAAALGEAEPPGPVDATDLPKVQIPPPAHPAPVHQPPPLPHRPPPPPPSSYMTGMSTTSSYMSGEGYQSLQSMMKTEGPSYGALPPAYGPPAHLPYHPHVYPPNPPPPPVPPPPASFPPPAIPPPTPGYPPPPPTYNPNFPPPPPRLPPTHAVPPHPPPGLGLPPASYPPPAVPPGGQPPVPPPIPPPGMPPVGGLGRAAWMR
pIC50: −log10 of the molar value.
readout: pIC50

Past entries and their recorded results:
{"columns": ["molecule", "tested_target", "pIC50"],
 "data": [
  ["FC(F)(F)c1cnc(NC2CCC3(CCNCC3)C2)nc1-c1c[nH]c2nc(N3CCOCC3)ccc12 (stereo not shown)", "CDK12 (aa686-1082)/cyclinK complex (Homo sapiens)", "4.30 to 5.30"],
  ["FC(F)(F)c1cnc(N[C@@H]2CCC[C@@H]3CNC[C@@H]32)nc1-c1c[nH]c2nc(N3CCOCC3)ccc12", "CDK12 (aa686-1082)/cyclinK complex (Homo sapiens)", "4.30 to 5.30"],
  ["CP(C)(=O)c1cccc2c(-c3nc(Nc4cn[nH]c4)ncc3C(F)(F)F)c[nH]c12", "CDK12 (aa686-1082)/cyclinK complex (Homo sapiens)", "5.30 to 6.70"]
]}

Now look at this entry.
Item CP(C)(=O)c1cccc2c(-c3nc(NCCO)ncc3C(F)(F)F)c[nH]c12 has what recorded pIC50?
< 4.30

====

molecular target: CDK2/cyclinE1 complex (Homo sapiens); experiment: In-vitro enzymatic inhibitory activity testing, CDK2 inhibition assay (Caliper EZ Reader II); settings: CDK2/cyclinE1 0.5 nM, 180 min at 27° C.
pIC50: −log10 of the molar value.
readout: pIC50

Example entries and their recorded answers appear below.
{"columns": ["compound", "tested_target", "pIC50"],
 "data": [
  ["C[C@@H](CO)Nc1ncc(F)c(-c2c[nH]c3c(P(C)(C)=O)cccc23)n1", "CDK2/cyclinE1 complex (Homo sapiens)", "5.30 to 6.70"],
  ["CP(C)(=O)c1cccc2c(-c3nc(Nc4cn[nH]c4)ncc3C(F)(F)F)c[nH]c12", "CDK2/cyclinE1 complex (Homo sapiens)", "6.70 to 7.70"],
  ["FC(F)(F)c1cnc(NC2CCC23CCNC3)nc1-c1c[nH]c2nc(N3CCOCC3)ccc12 (centres unmarked)", "CDK2/cyclinE1 complex (Homo sapiens)", "4.30 to 5.30"]
]}

Could you share which pIC50 value was measured for CP(C)(=O)c1cccc2c(-c3nc(N[C@@H](CO)C4CC4)ncc3C(F)(F)F)c[nH]c12 ?
4.30 to 5.30
